Target under test: SARS-CoV-2 NSP3 macrodomain (Mac1) (Severe acute respiratory syndrome coronavirus 2, UniProt P0DTD1)
Format: binding
Experimental parameters: ligand conformations modeled in the crystal structure
Measured endpoint: Total number of conformations
Just the number, please, no unit after it.

Report Total number of conformations for OCCC(CO)Nc1ncnc2[nH]ccc12 (centres unmarked) please.
1

Report Total number of conformations for OCC(COCc1ccccc1)Nc1ncnc2[nH]ccc12 (centres unmarked) please.
2

Report Total number of conformations for Cc1ccc(CC(CO)Nc2ncnc3[nH]ccc23)cc1 (centres unmarked) please.
2

Report Total number of conformations for OCC(Cc1ccccn1)Nc1ncnc2[nH]ccc12 (centres unmarked) please.
2

Report Total number of conformations for c1ccc(-n2nnnc2CSc2nnc(NC3CC3)s2)cc1 please.
1

Report Total number of conformations for O=C(O)C(F)(F)F.OC1([C@H]2CCCN2c2ncnc3[nH]ccc23)Cc2ccccc2C1 please.
1

Report Total number of conformations for Cc1ccccc1CC(CO)Nc1ncnc2[nH]ccc12 (centres unmarked) please.
1

Report Total number of conformations for OCC1CCCN1c1ncnc2[nH]ccc12 (centres unmarked) please.
1

Report Total number of conformations for CO[C@@H]1C[C@H](CO)N(c2ncnc3[nH]ccc23)C1 please.
1

Report Total number of conformations for O=C(Nc1ccsc1C(=O)O)c1ccc2c(c1)OCO2 please.
1

Report Total number of conformations for Cc1sc2ncnc(Sc3ccccc3C(=O)O)c2c1C please.
2

Report Total number of conformations for OCC(CC1CC1)Nc1ncnc2[nH]ccc12 (centres unmarked) please.
1

Report Total number of conformations for CC(c1ccccc1)C(CO)Nc1ncnc2[nH]ccc12 (centres unmarked) please.
1

Report Total number of conformations for OCC(CC1CCC1)Nc1ncnc2[nH]ccc12 (centres unmarked) please.
1

Report Total number of conformations for CC(CNC(=O)c1ccc2c(c1)CCC(=O)N2)C(=O)O (centres unmarked) please.
2

Report Total number of conformations for OC[C@@H]1C[C@H](O)CN1c1ncnc2[nH]ccc12 please.
1

Report Total number of conformations for CN(C)CC(CO)Nc1ncnc2[nH]ccc12 (centres unmarked) please.
1

Report Total number of conformations for CC1CC(C(=O)O)CCN1C(=O)c1ccc2c(c1)OCC(=O)N2 (centres unmarked) please.
1

Report Total number of conformations for Cc1cc2c(=O)n(CCN3C(=O)c4ccccc4S3(=O)=O)nnc2s1 please.
1

Report Total number of conformations for O=C(O)C(F)(F)F.OC[C@@H]1CC2(CC2)CN1c1ncnc2[nH]ccc12 please.
2

Report Total number of conformations for CCC1(O)CCN(c2ncnc3[nH]ccc23)C1 (centres unmarked) please.
1

Report Total number of conformations for CC1(C)C[C@@H](CO)N(c2ncnc3[nH]ccc23)C1.O=C(O)C(F)(F)F please.
1

Report Total number of conformations for O=C(O)C(F)(F)F.OC[C@H]1CC2(CN1c1ncnc3[nH]ccc13)OCCO2 please.
1

Report Total number of conformations for O=C(O)C1CCCN1S(=O)(=O)c1cccc2nsnc12 (centres unmarked) please.
1

Report Total number of conformations for O=C(O)C(F)(F)F.O[C@H]1CCC[C@@H]1Nc1ncnc2[nH]ccc12 please.
1

Report Total number of conformations for OCC(CC1CCCCC1)Nc1ncnc2[nH]ccc12 (centres unmarked) please.
1

###

I'd be grateful if you could share measured 2*(1-BDC) (%) for these entries.
Target under test: SARS-CoV-2 NSP3 macrodomain (Mac1) (Severe acute respiratory syndrome coronavirus 2)
Format: binding
Experimental parameters: occupancy estimate from PanDDA
The reply should contain only the number, in %.

Item OC1(CNc2ncnc3[nH]ccc23)CC2CCC1CC2 (centres unmarked) [AVI-4320] with SARS-CoV-2 NSP3 macrodomain (Mac1) (Severe acute respiratory syndrome coronavirus 2) - 2*(1-BDC) (%)?
28

Item CC(C)(O)C1C2CCCCC2CN1c1ncnc2[nH]ccc12 (centres unmarked) [AVI-4127] with SARS-CoV-2 NSP3 macrodomain (Mac1) (Severe acute respiratory syndrome coronavirus 2) - 2*(1-BDC) (%)?
50

Item OCC1C2CCC(C2)N1c1ncnc2[nH]ccc12 (centres unmarked) [AVI-3713] with SARS-CoV-2 NSP3 macrodomain (Mac1) (Severe acute respiratory syndrome coronavirus 2) - 2*(1-BDC) (%)?
58

Item OC1CCC(O)(CNc2ncnc3[nH]ccc23)CC1 (centres unmarked) [AVI-6220] with SARS-CoV-2 NSP3 macrodomain (Mac1) (Severe acute respiratory syndrome coronavirus 2) - 2*(1-BDC) (%)?
14

Item OCC(COCc1ccccc1)Nc1ncnc2[nH]ccc12 (centres unmarked) [AVI-3709] with SARS-CoV-2 NSP3 macrodomain (Mac1) (Severe acute respiratory syndrome coronavirus 2) - 2*(1-BDC) (%)?
38

###

Target under test: SARS-CoV-2 NSP3 macrodomain (Mac1) (Severe acute respiratory syndrome coronavirus 2)
Format: binding
Experimental parameters: refined crystallographic occupancy
I'd be grateful if you could share measured Refined ligand occupancy (%) for these entries.
Answer with the figure and its unit, nothing else.

Report Refined ligand occupancy (%) for OCC(COCc1ccccc1)Nc1ncnc2[nH]ccc12 (stereo not shown) [AVI-3709] please.
38%

Report Refined ligand occupancy (%) for CN(C)CC(CO)Nc1ncnc2[nH]ccc12 (stereo not shown) [AVI-3671] please.
34%

Report Refined ligand occupancy (%) for OCC(CC1CCOC1)Nc1ncnc2[nH]ccc12 (stereo not shown) [AVI-3665] please.
34%

Report Refined ligand occupancy (%) for C#CCC(CO)Nc1ncnc2[nH]ccc12 (stereo not shown) [AVI-3644] please.
36%

Report Refined ligand occupancy (%) for OCC1C2CCC(C2)N1c1ncnc2[nH]ccc12 (stereo not shown) [AVI-3713] please.
58%

Report Refined ligand occupancy (%) for OCC(CC1OCCO1)Nc1ncnc2[nH]ccc12 (stereo not shown) [AVI-3658] please.
40%

Report Refined ligand occupancy (%) for O=C(Nc1ccsc1C(=O)O)c1ccc2c(c1)OCO2 [AVI-316] please.
14%

###

Target under test: SARS-CoV-2 NSP3 macrodomain (Mac1) (Severe acute respiratory syndrome coronavirus 2, UniProt P0DTD1)
Format: binding
Experimental parameters: refined crystallographic occupancy
Hi! Could you tag entries with Refined ligand occupancy (%) below 50% as Criterion met, and those at or above as Criterion not met? Much appreciated.

Determine if OCC(CC1CCCO1)Nc1ncnc2[nH]ccc12 (stereo not shown) shows Refined ligand occupancy (%) strictly lower than 50%.
Criterion met

Determine if O=C(O)C(F)(F)F.OC[C@@H]1CC2(CC2)CN1c1ncnc2[nH]ccc12 shows Refined ligand occupancy (%) strictly lower than 50%.
Criterion not met

Determine if Cc1sc2ncnc(Sc3ccccc3C(=O)O)c2c1C shows Refined ligand occupancy (%) strictly lower than 50%.
Criterion not met

Determine if O=C(O)C(F)(F)F.OCC1(Nc2ncnc3[nH]ccc23)CC1 shows Refined ligand occupancy (%) strictly lower than 50%.
Criterion not met

Determine if OCC1CC2(CCC2)CN1c1ncnc2[nH]ccc12 (stereo not shown) shows Refined ligand occupancy (%) strictly lower than 50%.
Criterion met

Determine if CN1CCN(c2ncnc3[nH]ccc23)C(CO)C1 (stereo not shown) shows Refined ligand occupancy (%) strictly lower than 50%.
Criterion met

###

I'd be grateful if you could share measured Occupancy difference (refined_occupancy - 2*(1-BDC)) for these entries.
Target under test: SARS-CoV-2 NSP3 macrodomain (Mac1) (Severe acute respiratory syndrome coronavirus 2, UniProt P0DTD1)
Type: binding
Just the number, please, no unit after it.

Report Occupancy difference (refined_occupancy - 2*(1-BDC)) for C[C@@H](O)[C@H](CO)Nc1ncnc2[nH]ccc12.O=C(O)C(F)(F)F please.
0

Report Occupancy difference (refined_occupancy - 2*(1-BDC)) for OCC(Nc1ncnc2[nH]ccc12)C1CC1 (stereo not drawn) please.
0

Report Occupancy difference (refined_occupancy - 2*(1-BDC)) for NC(=O)C1(O)CCN(c2ncnc3[nH]ccc23)C1 (stereo not drawn) please.
0

###

Target under test: SARS-CoV-2 NSP3 macrodomain (Mac1) (Severe acute respiratory syndrome coronavirus 2)
Type: binding
Experimental parameters: PanDDA background density correction, 1-BDC
I'd be grateful if you could share measured 1-BDC for these entries.
Just the number, please, no unit after it.

Report 1-BDC for O[C@H]1CC[C@H]2CCN(c3ncnc4[nH]ccc34)[C@H]21 [AVI-5997] please.
0.29

Report 1-BDC for Cc1c[nH]c2ncnc(NCC3(O)CCSCC3)c12 [AVI-4195] please.
0.14

Report 1-BDC for O=C(O)C(c1ccccc1)n1sc2ccccc2c1=O (centres unmarked) [AVI-288] please.
0.37

Report 1-BDC for OC1(CNc2ncnc3[nH]ccc23)CCSCC1 [AVI-4319] please.
0.16

Report 1-BDC for OC1(CNc2ncnc3[nH]ccc23)CCCCC1 [AVI-6217] please.
0.22

###

Target under test: SARS-CoV-2 NSP3 macrodomain (Mac1) (Severe acute respiratory syndrome coronavirus 2, UniProt P0DTD1)
Format: binding
Experimental parameters: occupancy estimate from PanDDA
I'd be grateful if you could share measured 2*(1-BDC) (%) for these entries.
The reply should contain only the number, in %.

Report 2*(1-BDC) (%) for c1ccc(-n2nnnc2CSc2nnc(NC3CC3)s2)cc1 please.
22

Report 2*(1-BDC) (%) for OCC(Nc1ncnc2[nH]ccc12)C1CCc2ccccc21 (stereo not shown) please.
44

Report 2*(1-BDC) (%) for O[C@H]1CC[C@H]2CCN(c3ncnc4[nH]ccc34)[C@H]21 please.
58

Report 2*(1-BDC) (%) for Cc1c[nH]c2ncnc(NCC3(O)CCC(C)CC3)c12 (stereo not shown) please.
54

Report 2*(1-BDC) (%) for CC(C)(O)C1C2CCC2CN1c1ncnc2[nH]ccc12 (stereo not shown) please.
40

Report 2*(1-BDC) (%) for OCC(CC1OCCO1)Nc1ncnc2[nH]ccc12 (stereo not shown) please.
40

Report 2*(1-BDC) (%) for O=C(O)C(F)(F)F.OCC1(Nc2ncnc3[nH]ccc23)CCCC1 please.
44

Report 2*(1-BDC) (%) for OC[C@@H]1C[C@H](F)CN1c1ncnc2[nH]ccc12 please.
34

Report 2*(1-BDC) (%) for O=C(O)C(F)(F)F.OCC1(Nc2ncnc3[nH]ccc23)CC1 please.
40

Report 2*(1-BDC) (%) for O=C(O)C(c1ccccc1)n1sc2ccccc2c1=O (stereo not shown) please.
74

Report 2*(1-BDC) (%) for OCC(Nc1ncnc2[nH]ccc12)c1ccccc1 (stereo not shown) please.
36

Report 2*(1-BDC) (%) for OC1(CNc2ncnc3[nH]ccc23)CCCSC1 (stereo not shown) please.
42

Report 2*(1-BDC) (%) for OCC(CC1CCCC1)Nc1ncnc2[nH]ccc12 (stereo not shown) please.
36

Report 2*(1-BDC) (%) for OC1(CNc2ncnc3[nH]ccc23)CCCOC1 (stereo not shown) please.
50

Report 2*(1-BDC) (%) for CC1(C)CCC(CO)N(c2ncnc3[nH]ccc23)C1 (stereo not shown) please.
34

Report 2*(1-BDC) (%) for OCC(Nc1ncnc2[nH]ccc12)C1CCC1 (stereo not shown) please.
26

Report 2*(1-BDC) (%) for OCC(Cc1ccccc1)Nc1ncnc2[nH]ccc12 (stereo not shown) please.
36

Report 2*(1-BDC) (%) for CN(C)CC(CO)Nc1ncnc2[nH]ccc12 (stereo not shown) please.
34

Report 2*(1-BDC) (%) for OC[C@@H]1C[C@H](O)CN1c1ncnc2[nH]ccc12 please.
42

Report 2*(1-BDC) (%) for Cc1ccc(CC(CO)Nc2ncnc3[nH]ccc23)cc1 (stereo not shown) please.
30

Report 2*(1-BDC) (%) for CC(CNC(=O)c1ccc2c(c1)CCC(=O)N2)C(=O)O (stereo not shown) please.
22

Report 2*(1-BDC) (%) for CCC1(O)CCN(c2ncnc3[nH]ccc23)C1 (stereo not shown) please.
34

Report 2*(1-BDC) (%) for OCC(Nc1ncnc2[nH]ccc12)C1CCCC1 (stereo not shown) please.
32

Report 2*(1-BDC) (%) for Cc1ccccc1CC(CO)Nc1ncnc2[nH]ccc12 (stereo not shown) please.
38

Report 2*(1-BDC) (%) for OCC(CN1CCCCC1)Nc1ncnc2[nH]ccc12 (stereo not shown) please.
42

Report 2*(1-BDC) (%) for O=C(O)C(F)(F)F.OC[C@H]1CC2(CN1c1ncnc3[nH]ccc13)OCCO2 please.
42

Report 2*(1-BDC) (%) for CC(C)(C)CC(CO)Nc1ncnc2[nH]ccc12 (stereo not shown) please.
26

Report 2*(1-BDC) (%) for OCC1CC2(CCCCC2)CN1c1ncnc2[nH]ccc12 (stereo not shown) please.
58

Report 2*(1-BDC) (%) for CC1(C)C[C@@H](CO)N(c2ncnc3[nH]ccc23)C1.O=C(O)C(F)(F)F please.
66

Report 2*(1-BDC) (%) for O=C(O)C(F)(F)F.OC[C@@H]1CC2(CC2)CN1c1ncnc2[nH]ccc12 please.
52

Report 2*(1-BDC) (%) for Nc1nnc(SCCn2c(=O)oc3ccccc32)s1 please.
12

Report 2*(1-BDC) (%) for CC1CCN(C(=O)c2ccc3c(c2)nc(CO)n3C)CC1C(=O)O (stereo not shown) please.
50

Report 2*(1-BDC) (%) for CN(CC1(O)CCOCC1)c1ncnc2[nH]ccc12 please.
50

Report 2*(1-BDC) (%) for C[C@@H](O)[C@H](CO)Nc1ncnc2[nH]ccc12.O=C(O)C(F)(F)F please.
28
